Provide the reported zone of inhibition at 1 mg/well of each item.
# Test system: Enterobacter aerogenes
# Assay remarks: Antimicrobial well method, zone of inhibition
# Type: cell-based
# Assay context: Klebsiella aerogenes
# Procedure: Antimicrobial activity was carried out as described previously. Briefly, 20 mL of sterile Mueller Hinton agar (MHA) was poured in the petri plates and kept for solidification. After solidification, the test cultures were swabbed on the top of the media and kept for 10 min to dry. The required concentration (1 mg/well) of synthesized compounds 5a–l was added to each well and left for 30 min at RT for compound diffusion. […] The zone of inhibition was recorded in mm and the experiment was repeated twice.
I'd appreciate it if you included the unit after the number.

Worked examples, 3 compounds total:
COc1ccc(C(=O)OCc2cn([C@H](c3ccccc3)[C@H](C)N3CCCC3)nn2)cc1OC [5h]: 17 mm
CC(C(c1ccccc1)n1cc(COC(=O)c2ccc(C(C)(C)C)cc2)nn1)N1CCCC1 (stereo not shown) [5i]: 14 mm
C[C@@H]([C@@H](c1ccccc1)n1cc(COC(=O)c2ccc([N+](=O)[O-])cc2)nn1)N1CCCC1 [5g]: 22 mm

As a next step, examine the compound that follows.
Req: zone of inhibition at 1 mg/well for C[C@@H]([C@@H](c1ccccc1)n1cc(COC(=O)c2ccccc2Cl)nn1)N1CCCC1 [5k] ?
Resp: 22 mm

* * *

A set of compounds tested on Staphylococcus aureus, with measured MIC:
One number for each entry, in µg/mL.

Below, 4 compounds whose answers are already recorded.
C[C@@H]([C@@H](c1ccccc1)n1cc(COC(=O)C=Cc2ccccc2)nn1)N1CCCC1: 125
C[C@@H]([C@@H](c1ccccc1)n1cc(COC(=O)c2ccccc2Cl)nn1)N1CCCC1: 125
Cc1cccc(C(=O)OCc2cn([C@H](c3ccccc3)[C@H](C)N3CCCC3)nn2)c1: 250
CC(C(c1ccccc1)n1cc(COC(=O)c2ccc(C(C)(C)C)cc2)nn1)N1CCCC1 (stereo not drawn): 125

Batch lookup, MIC per entry.
1. C[C@@H]([C@@H](c1ccccc1)n1cc(COC(=O)c2ccc([N+](=O)[O-])cc2)nn1)N1CCCC1
2. C[C@@H]([C@@H](c1ccccc1)n1cc(CO)nn1)N1CCCC1
3. [H]/N=C(/N)N[C@H]1[C@H](O)[C@@H](O)[C@H](O[C@@H]2O[C@@H](C)[C@](O)(C=O)[C@H]2O[C@@H]2O[C@@H](CO)[C@H](O)[C@@H](O)[C@@H]2NC)[C@@H](N/C(N)=N\[H])[C@@H]1O [Streptomycin, reference compound]
4. COc1ccc(C(=O)OCc2cn([C@H](c3ccccc3)[C@H](C)N3CCCC3)nn2)cc1OC

Resp:
1. 125
2. 500
3. 6.25
4. 250

Req: So what does the record say about MIC for "C[C@@H]([C@@H](c1ccccc1)n1cc(COC(=O)c2ccccc2)nn1)N1CCCC1" ?
Resp: 250

* * *

Record form. Attribute: zone of inhibition at 1 mg/well. Fill in for each entry.
# System: Klebsiella pneumoniae
# Assay remarks: Antimicrobial well method, zone of inhibition
# Type: cell-based
# Procedure: Antimicrobial activity was carried out as described previously. Briefly, 20 mL of sterile Mueller Hinton agar (MHA) was poured in the petri plates and kept for solidification. After solidification, the test cultures were swabbed on the top of the media and kept for 10 min to dry. The required concentration (1 mg/well) of synthesized compounds 5a–l was added to each well and left for 30 min at RT for compound diffusion. […] The zone of inhibition was recorded in mm and the experiment was repeated twice.
Answers are plain numbers, in mm.

Required: zone of inhibition at 1 mg/well, one value per compound below.
1. COc1ccc(C(=O)OCc2cn([C@H](c3ccccc3)[C@H](C)N3CCCC3)nn2)cc1OC
2. C[C@@H]([C@@H](c1ccccc1)n1cc(COC(=O)c2ccccc2Cl)nn1)N1CCCC1
3. C[C@@H]([C@@H](c1ccccc1)n1cc(COC(=O)c2ccc([N+](=O)[O-])cc2)nn1)N1CCCC1
4. COc1ccc(Br)c(C(=O)OCc2cn(C(c3ccccc3)C(C)N3CCCC3)nn2)c1 (centres unmarked)
5. Cc1cccc(C(=O)OCc2cn([C@H](c3ccccc3)[C@H](C)N3CCCC3)nn2)c1

Resp:
[20, 14, 24, 10, 22]

The following compounds each have a reported value; give each one's zone of inhibition at 1 mg/well.
1. C[C@@H]([C@@H](c1ccccc1)n1cc(COC(=O)C=Cc2ccccc2)nn1)N1CCCC1
2. C[C@@H]([C@@H](c1ccccc1)n1cc(CO)nn1)N1CCCC1
3. CC([C@@H](c1ccccc1)n1cc(CN(C)[C@@H](C)Cc2ccccc2)nn1)N1CCCC1 (some centres unmarked)

Resp:
1: 12; 2: 20; 3: 18
